A collection of molecules and their measured Activity
# tested_system: Aldehyde dehydrogenase, dimeric NADP-preferring (Homo sapiens) (UniProt P30838)
# Sequence (P30838 whole entry): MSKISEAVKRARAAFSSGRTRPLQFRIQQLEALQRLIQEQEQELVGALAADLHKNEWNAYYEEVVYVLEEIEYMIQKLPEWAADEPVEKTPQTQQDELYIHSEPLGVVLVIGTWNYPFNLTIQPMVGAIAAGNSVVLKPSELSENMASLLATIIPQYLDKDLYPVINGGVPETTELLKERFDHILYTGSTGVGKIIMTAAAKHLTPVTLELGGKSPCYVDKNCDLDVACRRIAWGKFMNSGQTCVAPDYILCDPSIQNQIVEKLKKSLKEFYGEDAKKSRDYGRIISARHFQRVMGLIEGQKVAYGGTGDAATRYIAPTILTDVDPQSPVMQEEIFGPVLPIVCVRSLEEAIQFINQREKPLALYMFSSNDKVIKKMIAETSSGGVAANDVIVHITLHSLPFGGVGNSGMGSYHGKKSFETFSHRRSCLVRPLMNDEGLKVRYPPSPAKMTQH
# test: Inhibition of full length recombinant human ALDH3A1 expressed in Escherichia coli BL21(DE3) assessed as remaining dehydrogenase activity by measuring NAD(P)H level at 10 uM preincubated for 2 mins followed by addition of propionaldehyde as substrate in presence of NAD+ by spectrophotometric method
metric_name: Activity (%)

>>> result_value("CC(=O)C(C)Oc1ccc2c(c1)oc(=O)c1ccccc12 (stereo not drawn)")
103
>>> result_value("Cc1coc2cc3oc(=O)c(Cc4ccccc4)c(C)c3cc12")
90.3
>>> result_value("Cc1c(C)c2cc3c(=O)ccoc3c(C)c2oc1=O")
79.2
>>> result_value("Cc1oc2cc3oc(=O)c4c(c3cc2c1C)CCCC4")
94.1
>>> result_value("Cc1oc2cc3oc(=O)c(C)c(C)c3cc2c1C")
95.3
>>> result_value("Cc1c(C)c2c(cc(C)c3c(C)coc32)oc1=O")
98.1
>>> result_value("Cc1cc(=O)oc2cc(OCC(=O)Nc3ccccc3)ccc12")
95.5
>>> result_value("Cc1oc2c(C)c3oc(=O)c(C)c(C)c3cc2c1C")
102
>>> result_value("CC(C)=CCOc1ccc2c(C)cc(=O)oc2c1")
23.7
>>> result_value("CCN(CC)c1ccc2c(C)cc(=O)oc2c1")
109
>>> result_value("Cc1cc(=O)oc2cc(OCC(N)=O)ccc12")
67.1
>>> result_value("Cc1c(C)c2cc3c(C(C)(C)C)coc3cc2oc1=O")
87
>>> result_value("CC(=O)COc1ccc2c(C)cc(=O)oc2c1")
64.1
>>> result_value("CCCc1c(C)c2cc3c(C)c(C)oc3cc2oc1=O")
86.3
>>> result_value("C/C(=N\\O)c1cc2cc(Br)ccc2oc1=O")
91.7
>>> result_value("Cc1c(CCC(=O)O)c(=O)oc2cc(O)ccc12")
105
>>> result_value("Cc1oc2cc3oc(=O)cc(Cc4ccccc4)c3cc2c1C")
81.6
>>> result_value("Cc1cc(=O)oc2cc(OCC(=O)c3ccccc3)ccc12")
67.1
>>> result_value("CCCc1c(C)c2cc3c(C)coc3cc2oc1=O")
96.1
>>> result_value("Cc1c(C)c2cc3c4c(oc3cc2oc1=O)CCCC4")
96.1
>>> result_value("C=CCOc1ccc2c(C)cc(=O)oc2c1")
9.46
>>> result_value("Cc1oc2cc3oc(=O)c4c(c3cc2c1C)CCC4")
87.1
>>> result_value("Cc1cc2oc(=O)cc(C)c2cc1NC(=O)C(C)C")
105
